Source of measurements: ChEMBL document CHEMBL3091446

ASSAYED SYSTEM: Cannabinoid receptor 2 (Homo sapiens)
PROCEDURE TEXT: Displacement of [3H]CP-55,940 from human recombinant cannabinoid CB2 receptor expressed in CHO cells
Type: cell-based
Catalogue of pKi readings, one per entry.
# log scale: pKi equals minus log10 of the concentration in mol/L

Observe how each entry below is paired with its result.
O=C(CCc1nc(-c2ccc(F)cc2Br)no1)Nc1ccc2c(c1)c1ccccc1n2CCCF ... 5.74
O=C(CCc1nc(-c2ccc(F)cc2)no1)Nc1ccc2c(c1)c1ccccc1n2CCCO ... 6.71
O=C(CCc1nc(-c2ccc(Br)cc2F)no1)Nc1ccc2c(c1)c1ccccc1n2CCF ... 6.32

Query string: Notebook entry, Cannabinoid receptor 2 (Homo sapiens) assay: pKi of CCn1c2ccccc2c2cc(NC(=O)CCc3nc(-c4ccc(F)cc4C#N)no3)ccc21 = ?
Result string: 8.16

Query string: Notebook entry, Cannabinoid receptor 2 (Homo sapiens) assay: pKi of O=C(CCCc1nc(-c2ccc(Cl)cc2)no1)Nc1ccc2c(c1)c1ccccc1n2CCO = ?
Result string: 6.23

Query string: Notebook entry, Cannabinoid receptor 2 (Homo sapiens) assay: pKi of O=C(CCc1nc(-c2ccc(F)cc2Br)no1)Nc1ccc2c(c1)c1ccccc1n2CCO = ?
Result string: 6.44

Query string: Notebook entry, Cannabinoid receptor 2 (Homo sapiens) assay: pKi of N#Cc1cc(F)ccc1-c1noc(CCC(=O)Nc2ccc3c(c2)c2ccccc2n3CCO)n1 = ?
Result string: 6.31

Query string: Notebook entry, Cannabinoid receptor 2 (Homo sapiens) assay: pKi of N#Cc1cc(F)ccc1-c1noc(CCC(=O)Nc2ccc3c(c2)c2ccccc2n3CCF)n1 = ?
Result string: 6.07

Query string: Notebook entry, Cannabinoid receptor 2 (Homo sapiens) assay: pKi of O=C(CCc1nc(-c2ccc(Cl)cc2)no1)Nc1ccc2c(c1)c1ccccc1n2CCF = ?
Result string: 6.54

Query string: Notebook entry, Cannabinoid receptor 2 (Homo sapiens) assay: pKi of O=C(CCc1nc(-c2ccc(F)cc2Br)no1)Nc1ccc2c(c1)c1ccccc1n2CCCO = ?
Result string: 7.48

Query string: Notebook entry, Cannabinoid receptor 2 (Homo sapiens) assay: pKi of O=C(CCCc1nc(-c2ccc(F)cc2Br)no1)Nc1ccc2c(c1)c1ccccc1n2CCF = ?
Result string: 6.25

Query string: Notebook entry, Cannabinoid receptor 2 (Homo sapiens) assay: pKi of O=C(CCc1nc(-c2ccc(F)cc2Br)no1)Nc1ccc2c(c1)c1ccccc1n2CCF = ?
Result string: 8.24

Query string: Notebook entry, Cannabinoid receptor 2 (Homo sapiens) assay: pKi of O=C(CCc1nc(-c2ccc(F)cc2)no1)Nc1ccc2c(c1)c1ccccc1n2CCF = ?
Result string: 7.39

Query string: Notebook entry, Cannabinoid receptor 2 (Homo sapiens) assay: pKi of Cc1ccc(-c2noc(CCC(=O)Nc3ccc4c(c3)c3ccccc3n4CCF)n2)cc1 = ?
Result string: 6.42

---

ASSAYED SYSTEM: Cannabinoid receptor 1 (Homo sapiens, UniProt P21554)
Sequence (P21554 whole entry): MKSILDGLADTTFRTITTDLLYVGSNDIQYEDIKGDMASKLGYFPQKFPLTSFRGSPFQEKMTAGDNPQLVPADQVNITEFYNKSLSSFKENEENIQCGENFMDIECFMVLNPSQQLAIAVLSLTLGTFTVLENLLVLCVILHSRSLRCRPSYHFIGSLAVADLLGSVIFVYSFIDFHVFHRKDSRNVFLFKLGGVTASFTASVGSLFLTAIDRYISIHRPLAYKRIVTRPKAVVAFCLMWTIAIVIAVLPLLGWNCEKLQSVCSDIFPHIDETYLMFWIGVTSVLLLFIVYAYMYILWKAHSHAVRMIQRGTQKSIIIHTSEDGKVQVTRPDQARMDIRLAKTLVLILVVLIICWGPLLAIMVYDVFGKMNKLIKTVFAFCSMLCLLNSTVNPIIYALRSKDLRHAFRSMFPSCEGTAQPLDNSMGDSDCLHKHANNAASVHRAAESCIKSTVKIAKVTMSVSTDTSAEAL
PROCEDURE TEXT: Binding affinity to human cannabinoid CB1 receptor
Catalogue of Ki readings, one per entry.

CCCCOc1c(OCC[18F])ccc2cc(C(=O)NC3CCCCC3)c(=O)[nH]c12 ... > 1000 nM
CCCCOc1c(OC)ccc2cc(C(=O)NCc3ccc([18F])cc3)c(=O)[nH]c12 ... > 10000 nM

--- query ---
Query string: Need Ki of CCCCOc1c(O[11CH3])ccc2cc(C(=O)NC3CCCCC3)c(=O)[nH]c12 , thanks.
Result string: > 1000 nM

---

ASSAYED SYSTEM: Cannabinoid receptor 2 (Homo sapiens, UniProt P34972)
Sequence (P34972 whole entry): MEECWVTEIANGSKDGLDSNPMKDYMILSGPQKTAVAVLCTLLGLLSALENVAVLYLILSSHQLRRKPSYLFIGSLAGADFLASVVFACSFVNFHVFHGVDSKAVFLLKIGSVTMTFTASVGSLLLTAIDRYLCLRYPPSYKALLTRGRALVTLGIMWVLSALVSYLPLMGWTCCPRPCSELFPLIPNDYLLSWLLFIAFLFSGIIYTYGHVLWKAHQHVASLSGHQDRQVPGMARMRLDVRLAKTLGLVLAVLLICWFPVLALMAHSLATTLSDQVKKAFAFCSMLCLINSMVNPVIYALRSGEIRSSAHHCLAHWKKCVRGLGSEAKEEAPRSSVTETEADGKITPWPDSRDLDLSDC
PROCEDURE TEXT: Displacement of [3H]CP-55,940 from human recombinant cannabinoid CB2 receptor expressed in CHO cells
Format: cell-based
PARAMETER MEASURED: Ki (nM)
Form entry: value (nM) — number only.

O=C(CCc1nc(-c2ccc(Cl)cc2)no1)Nc1ccc2c(c1)c1ccccc1n2CCO ... 990
O=C(CCc1nc(-c2ccc(F)cc2)no1)Nc1ccc2c(c1)c1ccccc1n2CCO ... 1100

--- query ---
Query string: Need Ki of O=C(CCc1nc(-c2ccc(F)cc2Br)no1)Nc1ccc2c(c1)c1ccccc1n2CCCCO , thanks.
Result string: 96
